System: MEK2
Construct: gene MAP2K2
Conditions used: concentration: 1 μM, replicates: in singlicate; n = 1;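 further: KINOMEscan kinase panel screen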
Give measured %Inh for each item. Keep answers brief.
Answers are plain numbers, in %.

Previously resolved entries follow.
1. C[C@@H]1CC[C@@H](C(=O)Nc2ccccc2)CN1c1cc(-c2ccc3c(N)n[nH]c3c2)nc(N)n1 :: 1
2. Nc1ncc(-c2cccnc2)c2scc(-c3ccc4c(c3)CCN4C(=O)Cc3ccccc3)c12 :: 1

Q. Supply recorded %Inh for COC(=O)Nc1nc2ccc(Oc3ccc(NC(=O)Nc4cc(C(F)(F)F)ccc4F)cc3)cc2n1C.Cl here.
A. 1

###

Give measured %Inh for each item. Keep answers brief.
Test system: AMPK-alpha1
Construct: gene PRKAA1
Conditions used: concentration: 1 μM, replicates: in singlicate; n = 1
Please give the number followed by its unit.

Previously resolved entries follow.
1) COc1cc(Nc2nccc(-c3c(-c4cccc(NC(=O)c5c(F)cccc5F)c4)nn4ccccc34)n2)cc(OC)c1OC :: 20%
2) C[C@@H]1CC[C@@H](C(=O)Nc2ccccc2)CN1c1cc(-c2ccc3c(N)n[nH]c3c2)nc(N)n1 :: 13%
3) CN(C)Cc1ccc(-c2ccc3c(Nc4ccc(Oc5ccccn5)cc4)ccnc3c2)o1 :: 8%

Okay, next one:
Q. Supply recorded %Inh for CNC(=O)c1ccccc1Nc1nc(Nc2ccc(N3CCOCC3)cc2)ncc1Cl.Cl here.
A. 99.2%

###

System: MKK7
Conditions used: concentration: 1 μM, replicates: in singlicate; n = 1
Measured endpoint: %Inh (%)
Give bare numbers, in %.

Previously resolved entries follow.
1) Cc1ccc(S(=O)(=O)Nc2ccc(Nc3nccc(Nc4cccc5[nH]ncc45)n3)cc2)cc1 :: 0
2) COc1cccc(C(=O)Nc2cccc(Oc3ccc4nc(NC(=O)C5CC5)cn4n3)c2)c1 :: 0
3) CCS(=O)(=O)c1ccc(OC)c(Nc2nccc(-c3c(-c4cccc(NC(=O)c5c(F)cccc5F)c4)nn4ncccc34)n2)c1 :: 14

Would you mind giving %Inh for every molecule in the list below?
1. COc1cc(Nc2nccc(N3CCC(NC(=O)Nc4cccc(C(C)=O)c4)C3)n2)cc(OC)c1OC (stereo not drawn)
2. NCCCC(NC(=O)c1cc(Br)c(-c2ccnc3[nH]ccc23)s1)c1ccccc1.O=C(O)C(F)(F)F.O=C(O)C(F)(F)F (stereo not drawn)
3. Cc1ccc(C)c(NC(=O)NC2CCN(c3ccnc(Nc4ccc(F)cc4)n3)C2)c1 (stereo not drawn)

A.
1: 0; 2: 16; 3: 0

Would you mind giving %Inh for every molecule in the list below?
1. CNC(=O)c1ccccc1Nc1nc(Nc2ccc(N3CCOCC3)cc2)ncc1Cl.Cl
2. COc1cccc(C2=C(Nc3ccc(Cl)c(C(=O)O)c3)C(=O)NC2=O)c1
3. C[C@@H]1CC[C@@H](C(=O)Nc2ccccc2)CN1c1cc(-c2ccc3c(N)n[nH]c3c2)nc(N)n1

A.
1. 0
2. 18
3. 0

###

Give measured %Inh for each item. Keep answers brief.
Test system: MAK
Conditions used: concentration: 1 μM, replicates: in singlicate; n = 1
Please give the number followed by its unit.

Previously resolved entries follow.
1) O=C(Nc1cccc(-c2nn3ccccc3c2-c2ccnc(Nc3cccc(C(F)(F)F)c3)n2)c1)c1c(F)cccc1F [GSK292658] :: 25%
2) Cn1cc(-c2ccc3c(c2)CCN3C(=O)Cc2cccc(F)c2)c2c(N)ncnc21 [GSK2603358] :: 27%
3) CCCCc1nn2ncccc2c1-c1ccnc(Nc2ccc(N3CCN(C)CC3)cc2)n1 [GW684941] :: 20%
4) O=C(Nc1cccc(-c2nn3ccccc3c2-c2ccnc(Nc3cccc(F)c3)n2)c1)c1c(F)ccc(F)c1Cl [GSK357952] :: 22%
5) Cc1ccc(F)c(C(=O)Nc2cccc(-c3nn4ccccc4c3-c3ccnc(Nc4cccc(F)c4)n3)c2)c1F [GSK361061] :: 0%

Would you mind giving %Inh for every compound in the list below?
1. CC(C)c1nc(-c2cccc(NS(=O)(=O)c3c(F)cccc3F)c2F)c(-c2ccnc(Nc3ccc(N4CCOCC4)nc3)n2)s1 [GSK2008607]
2. Fc1ccc(-c2ncn(C3CCNCC3)c2-c2ccnc(Oc3ccc(-c4ccccc4)cc3)n2)cc1 [SB-245391]
3. COc1cccc(NC(=O)NC2CCN(c3ccnc(Nc4cc(OC)c(OC)c(OC)c4)n3)C2)c1 (stereo not drawn) [GSK1379763]
4. C[C@@H]1CC[C@@H](C(=O)Nc2ccccc2)CN1c1cc(-c2ccc3c(N)n[nH]c3c2)nc(N)n1 [GSK2286062]

A.
1: 100%; 2: 10%; 3: 23%; 4: 22%
